cond: 303.15 K, Ring tensiometer
Recorded surface tension liquid-gas by entry
quantity.name: surface tension liquid-gas (mN/m)

INSERT INTO assay_data (compound, u, numeric_result) VALUES
  ('CCC[n+]1cccc(C)c1.O=S(=O)([N-]S(=O)(=O)C(F)(F)F)C(F)(F)F', 'mN/m', 35.53),
  ('CCCC[N+]1(C)CCCC1.O=S(=O)([N-]S(=O)(=O)C(F)(F)F)C(F)(F)F', 'mN/m', 34.35),
  ('CCCCn1cc[n+](C)c1C.O=S(=O)([N-]S(=O)(=O)C(F)(F)F)C(F)(F)F', 'mN/m', 35.54),
  ('CCCCCCCCCCCCCC[P+](CCCCCC)(CCCCCC)CCCCCC.O=S(=O)([N-]S(=O)(=O)C(F)(F)F)C(F)(F)F', 'mN/m', 30.25),
  ('CCn1cc[n+](CC)c1.O=S(=O)([N-]S(=O)(=O)C(F)(F)F)C(F)(F)F [1,3-diethylimidazolium bis[(trifluoromethyl)sulfonyl]imide]', 'mN/m', 35.37),
  ('CCC[N+]1(C)CCCC1.O=S(=O)([N-]S(=O)(=O)C(F)(F)F)C(F)(F)F', 'mN/m', 31.95);

====

cond: 323.15 K, Ring tensiometer
± gives the expanded uncertainty stated by the source.
quantity.name: surface tension liquid-gas

INSERT INTO results (compound, quantity_name, result) VALUES
  ('CCC[N+]1(C)CCCC1.O=S(=O)([N-]S(=O)(=O)C(F)(F)F)C(F)(F)F', 'surface tension liquid-gas', '31 ± 0.46 mN/m'),
  ('CCCCn1cc[n+](C)c1C.O=S(=O)([N-]S(=O)(=O)C(F)(F)F)C(F)(F)F', 'surface tension liquid-gas', '32.2 ± 0.48 mN/m'),
  ('CCn1cc[n+](CC)c1.O=S(=O)([N-]S(=O)(=O)C(F)(F)F)C(F)(F)F [1,3-diethylimidazolium bis[(trifluoromethyl)sulfonyl]imide]', 'surface tension liquid-gas', '34.56 ± 0.51 mN/m'),
  ('CCC[n+]1cccc(C)c1.O=S(=O)([N-]S(=O)(=O)C(F)(F)F)C(F)(F)F', 'surface tension liquid-gas', '34.53 ± 0.51 mN/m'),
  ('CCCC[N+]1(C)CCCC1.O=S(=O)([N-]S(=O)(=O)C(F)(F)F)C(F)(F)F', 'surface tension liquid-gas', '33.17 ± 0.49 mN/m'),
  ('CCCCCCCCCCCCCC[P+](CCCCCC)(CCCCCC)CCCCCC.O=S(=O)([N-]S(=O)(=O)C(F)(F)F)C(F)(F)F', 'surface tension liquid-gas', '28.87 ± 0.44 mN/m');

====

Recorded surface tension liquid-gas by entry
cond: 333.15 K, Ring tensiometer
quantity.name: surface tension liquid-gas (mN/m)

INSERT INTO results (compound, u, numeric_result) VALUES
  ('CCC[N+]1(C)CCCC1.O=S(=O)([N-]S(=O)(=O)C(F)(F)F)C(F)(F)F', 'mN/m', 30.47),
  ('CCCC[N+]1(C)CCCC1.O=S(=O)([N-]S(=O)(=O)C(F)(F)F)C(F)(F)F', 'mN/m', 32.61),
  ('CCCCn1cc[n+](C)c1C.O=S(=O)([N-]S(=O)(=O)C(F)(F)F)C(F)(F)F', 'mN/m', 30.49),
  ('CCCCCCCCCCCCCC[P+](CCCCCC)(CCCCCC)CCCCCC.O=S(=O)([N-]S(=O)(=O)C(F)(F)F)C(F)(F)F', 'mN/m', 28.21),
  ('CCn1cc[n+](CC)c1.O=S(=O)([N-]S(=O)(=O)C(F)(F)F)C(F)(F)F [1,3-diethylimidazolium bis[(trifluoromethyl)sulfonyl]imide]', 'mN/m', 34.15),
  ('CCC[n+]1cccc(C)c1.O=S(=O)([N-]S(=O)(=O)C(F)(F)F)C(F)(F)F', 'mN/m', 34.05);
